- Tested on: HCI-019 (organoid from a triple-negative breast cancer xenograft)
- measurement-description: CTG-3D luminescence at 96 h relative to day-0 seeding control (ratio to day 0); higher = more growth / less cytotoxicity; PDxO 3D drug screen, 96 h, CTG-3D normalised to day-0 seeding control.
- test-context: 100 µM; days in culture: 110
Parameter threshold = 0.3. Response is fulfilled when CTG-3D luminescence at 96 h meets or exceeds it, else not fulfilled.

{"structure-string": "CC1(C)CCC(c2ccc(Cl)cc2)=C(CN2CCN(c3ccc(C(=O)NS(=O)(=O)c4ccc(N[C@H](CCN5CCOCC5)CSc5ccccc5)c(S(=O)(=O)C(F)(F)F)c4)cc3)CC2)C1", "classification": "not fulfilled"}
{"structure-string": "O=C(/C=C/c1cccnc1)NCCCCC1CCN(C(=O)c2ccccc2)CC1", "classification": "not fulfilled"}
{"structure-string": "C=CCn1c(=O)c2cnc(Nc3ccc(N4CCN(C)CC4)cc3)nc2n1-c1cccc(C(C)(C)O)n1", "classification": "fulfilled"}
{"structure-string": "O=C(O)C1(C(=O)O)CCC1.[NH2-].[NH2-].[Pt+2]", "classification": "not fulfilled"}
{"structure-string": "CCN(c1cc(C#CCN2CCOCC2)cc(C(=O)NCc2c(C)cc(C)[nH]c2=O)c1C)[C@H]1CC[C@H](N(C)CCOC)CC1", "classification": "fulfilled"}
{"structure-string": "CCN1CCN(Cc2ccc(Nc3ncc(F)c(-c4cc(F)c5nc(C)n(C(C)C)c5c4)n3)nc2)CC1", "classification": "not fulfilled"}
{"structure-string": "C/C=C1\\NC(=O)[C@H]2CSSCC/C=C/[C@H](CC(=O)N[C@H](C(C)C)C(=O)N2)OC(=O)[C@H](C(C)C)NC1=O", "classification": "not fulfilled"}
